- System: TO-N3-2 (biotin conjugate)
- ASSAY EXPLANATION: pull-down binding Z-score (relative to library population); higher = stronger binding
- STUDY CONDITIONS: RNA library: Library-2
The label depends only on pull-down binding Z-score: yes (1) if it is at least -0.5, no (0) if it is smaller.

QUERY: Is reported pull-down binding Z-score greater than or equal to -0.5 here: CUCACGUGUGCCUGCCUGUGAG [hsa-mir-339]
RESULT: yes (1)

QUERY: Can UCCUAAAGUGAAGUAUUUAUACUUUAUUAAAGGA [SHAPE_invitro_SARS-CoV-2_Motif_235] be said to have pull-down binding Z-score at or above -0.5?
RESULT: no (0)

QUERY: Hi team, for "CUAACUGAGAAUAAAUAUUCUCAAUUAG" , is the recorded pull-down binding Z-score at or above -0.5?
RESULT: no (0)

QUERY: Textbook exercise: given the entry UACAAUUUUUUUUUUUUUAAAUUUUA [hsa-mir-1303] , state whether its pull-down binding Z-score is greater than or equal to -0.5.
RESULT: no (0)

QUERY: Evaluate AUGGAGGCUGCUUCUCCUCAGCAGCUGCCAUA [hsa-mir-3651] : pull-down binding Z-score at minimum -0.5?
RESULT: yes (1)

QUERY: Does pull-down binding Z-score meet or surpass -0.5 for CAGUAUGAAUGAAUUCAUGAUACUG [hsa-mir-3607] ?
RESULT: no (0)

QUERY: For this sequence, is measured pull-down binding Z-score -0.5 or higher? GUCACCAGCCCUCAUGUACUUGUGAC [hsa-mir-6820]
RESULT: yes (1)

QUERY: Does pull-down binding Z-score meet or surpass -0.5 for AUGGCCCCGAUUUCAGCUAU [SHAPE_invivo_SARS-CoV-2_Motif_151] ?
RESULT: yes (1)

QUERY: Decide: is the reported value of pull-down binding Z-score for GCAUGCCC [hsa-mir-1178] equal to or greater than -0.5?
RESULT: yes (1)

QUERY: Record CUAUUCAGAAAUGUGGCCUGUGAUUAG [hsa-mir-1295a] ; criterion: pull-down binding Z-score no lower than -0.5. Met?
RESULT: yes (1)

QUERY: Reported pull-down binding Z-score at or above -0.5? AUUGGAUGGAGUCAGGUCUCUAAU [hsa-mir-200b]
RESULT: yes (1)

* * *

- Test system: TO-N3-2 (biotin conjugate)
- ASSAY EXPLANATION: pull-down binding Z-score (relative to library population); higher = stronger binding
- STUDY CONDITIONS: RNA library: Library-2
Label t for high-side pull-down binding Z-score (at or above -0.5) and f for low-side pull-down binding Z-score (below it).

QUERY: Evaluate ACCACCAAUUAAAGAUUUUGGUGGU [SHAPE_invitro_SARS-CoV-2_Motif_434] : pull-down binding Z-score at minimum -0.5?
RESULT: f

QUERY: pull-down binding Z-score >= -0.5 for GGAAUAAGUACGAUACUUACCUG [U1snRNP5ss-5] ?
RESULT: t

QUERY: Form field: pull-down binding Z-score at least -0.5? Entry: CGACUCCGUGGCAGAGUUCA [hsa-mir-3666]
RESULT: t

QUERY: Exam item: decide whether the reported pull-down binding Z-score for GGAAUCCUACGUGAGGGACAAUCAUUCAGACCCACGUAGCAGUGUUCU [hsa-mir-1299] is at least -0.5.
RESULT: t

QUERY: Quick check, pull-down binding Z-score >= -0.5? UGUUGGGGGGACA [hsa-mir-4262]
RESULT: t

QUERY: Hello, I need to know if GUGGAAUGCAAAGUCCCAC [hsa-mir-5698] has measured pull-down binding Z-score not below -0.5. Thanks!
RESULT: f

QUERY: Confirm if pull-down binding Z-score reported for the sequence "CCGAAAUUAUGUCUUUACUGGUUAUCGUGUAACUAAAAACAGUAAAGUACAAAUAGG" is -0.5 or above.
RESULT: t

QUERY: Check if pull-down binding Z-score >= -0.5 (inclusive). Item: "AACAUUAACCUCCACACGCAAGUUGUGGACAUGUCAAUGACAUAUGGACAACAGUUUGGUCCAACUUAUUUGGAUGGAGCUGAUGUU"
RESULT: f

QUERY: In plain terms: is recorded pull-down binding Z-score at least -0.5 for GGUGGCAAUCAAGGUCUAGCCACC [hsa-mir-4733] ?
RESULT: t

QUERY: Decide: is the reported value of pull-down binding Z-score for GUUCUUUGAGAAC [IAV_invivo_PA_3_Motif_25+IAV_invivo_PA_3_Motif_25] equal to or greater than -0.5?
RESULT: f
